Reference source: paper PMC3616288

Biological target: T1, S. cerevisiae β′-COP(1–814)/α-COP(642–818) dimer (S. cerevisiae, UniProt P41811 1-814; P53622 642-818)
T1 sequence (looked up) 1: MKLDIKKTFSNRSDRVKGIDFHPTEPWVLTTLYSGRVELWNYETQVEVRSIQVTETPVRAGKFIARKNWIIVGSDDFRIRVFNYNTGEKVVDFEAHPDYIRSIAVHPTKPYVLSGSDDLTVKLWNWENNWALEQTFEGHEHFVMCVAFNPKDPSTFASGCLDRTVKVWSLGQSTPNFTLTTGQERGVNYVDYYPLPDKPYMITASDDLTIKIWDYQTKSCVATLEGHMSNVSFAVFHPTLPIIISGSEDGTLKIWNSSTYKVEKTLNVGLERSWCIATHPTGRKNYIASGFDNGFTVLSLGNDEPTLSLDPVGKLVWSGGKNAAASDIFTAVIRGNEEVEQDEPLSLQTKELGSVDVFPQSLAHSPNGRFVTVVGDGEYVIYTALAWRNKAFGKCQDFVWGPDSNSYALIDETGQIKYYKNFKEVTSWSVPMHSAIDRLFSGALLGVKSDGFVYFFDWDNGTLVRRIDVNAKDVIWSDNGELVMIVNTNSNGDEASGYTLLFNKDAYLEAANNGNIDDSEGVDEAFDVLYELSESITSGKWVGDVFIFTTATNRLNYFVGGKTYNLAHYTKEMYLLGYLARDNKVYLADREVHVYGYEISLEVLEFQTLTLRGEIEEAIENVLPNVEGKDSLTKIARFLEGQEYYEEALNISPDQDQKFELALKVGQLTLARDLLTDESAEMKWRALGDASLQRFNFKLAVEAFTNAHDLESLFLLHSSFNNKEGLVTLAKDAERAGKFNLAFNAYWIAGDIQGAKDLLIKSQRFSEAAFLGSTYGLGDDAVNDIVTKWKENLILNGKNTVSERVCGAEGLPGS
T1 sequence (looked up) 2: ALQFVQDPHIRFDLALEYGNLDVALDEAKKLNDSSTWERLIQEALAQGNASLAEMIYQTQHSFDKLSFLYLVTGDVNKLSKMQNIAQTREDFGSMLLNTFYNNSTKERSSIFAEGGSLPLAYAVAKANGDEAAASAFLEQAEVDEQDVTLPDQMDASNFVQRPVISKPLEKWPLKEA
Experiment: ITC
metric: pKd
The value called pKd is obtained by taking minus log10 of the concentration in mol/L.

pKd for RRSFIDEKKMP [adenoviral E19 protein peptide RRSFIDEKKMP] ?
4.31

Could you do the same for IKTKLL [Emp47p peptide IKTKLL] , please?
4.65

Could you do the same for EKEKSD [human Wbp1 (OST48) peptide EKEKSD] , please?
5.47

Could you do the same for FEAKKLV [p25 peptide FEAKKLV] , please?
4.56

Could you do the same for GARKLD [Scyl1 peptide GARKLD] , please?
4.69

Could you do the same for TFKKTN [yeast Wbp1 peptide TFKKTN] , please?
3.77
